Experiment: Pharmacokinetic test in rats
Format: in vivo, male SD rats
Conditions: male, SD, rat, plasma, oral administration by gavage 10 mg/kg
property: half-life (h)
Hi! Could you send only the number? It should be in h, unit omitted.

>  <compound>
C[C@@H](OCCc1c[nH]nn1)C(=O)N1Cc2cnc(NC3Cc4ccccc4C3)nc2C1 [Compound I-1R]

>  <property>
half-life

>  <experimentalResult>
2.51

$$$$

Now look at this one.
Q: Determine its reported half-life: C[C@@H](Cc1cnn[nH]1)OCC(=O)N1Cc2cnc(NC3Cc4ccccc4C3)nc2C1 [Compound I-2S]
Result: 1.91

---

Assay: Pharmacokinetic test in mice
Format: in vivo, male ICR mice
Conditions: male, ICR, mouse, plasma, oral administration by gavage 10 mg/kg
property: Cmax (ng/mL)
Number in ng/mL, nothing else.

Q: Dear colleague, please send me the reported Cmax for C[C@@H](OCCc1c[nH]nn1)C(=O)N1Cc2cnc(NC3Cc4ccccc4C3)nc2C1 [Compound I-1R] when you can.
Result: 6940
